B1: library; a variant is named by its letters at N, in order (parent)
chain: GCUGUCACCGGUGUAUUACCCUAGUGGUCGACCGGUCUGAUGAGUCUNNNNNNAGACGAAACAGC

Variants of: B1
Assay: FACS-Seq fitted mean relative fluorescence mCherry/BFP without ligand (log10 relative fluorescence); ligand: hypoxanthine (xanthine aptamer); higher = higher reporter protein expression
Conditions: HEK293T, ligand present: no
Measured FACS-Seq fitted mean (log10) by item
Number only, no unit.

{"mutation-list": "CACUUC", "readout-number": -0.745}
{"mutation-list": "GACAUA", "readout-number": 0.382}
{"mutation-list": "AUGAUA", "readout-number": -0.373}

Exercise: Field request: FACS-Seq fitted mean (log10) | item: AAUAAU
Key: 0.172

Exercise: Consider the variant ACAGAG and give its measured FACS-Seq fitted mean (log10).
Key: 0.0524

Exercise: Given AGCGUG , state its recorded FACS-Seq fitted mean (log10).
Key: 0.152

Exercise: Recorded FACS-Seq fitted mean (log10) of GCAUGC , please.
Key: -0.393

Exercise: I have this variant here, AAUGCA , and I need its recorded FACS-Seq fitted mean (log10).
Key: 0.304

Exercise: Tell me the measured FACS-Seq fitted mean (log10) of UACUCA , please.
Key: 0.0121

Exercise: Given the entry GAAACU , report its measured FACS-Seq fitted mean (log10).
Key: 0.54

Exercise: If you can, please state the reported FACS-Seq fitted mean (log10) value of GAUAUG .
Key: 0.0367

Exercise: Field request: FACS-Seq fitted mean (log10) | item: GCGUUA
Key: 0.535

Exercise: Item GUCGGG has what recorded FACS-Seq fitted mean (log10)?
Key: 0.355

Exercise: Any idea what FACS-Seq fitted mean (log10) was measured for AAAGCA ?
Key: 0.391

Exercise: Please report the recorded FACS-Seq fitted mean (log10) for GGGCCG .
Key: -0.0164

Exercise: I am curious: what FACS-Seq fitted mean (log10) value has been reported for GGUUAC ?
Key: 0.247

Exercise: Recorded FACS-Seq fitted mean (log10) of CGAAAA , please.
Key: 0.531
